assay: chemical genetic growth profiling, strain panel (AID 1159580);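 note: tested at 20 µM; growth read once vehicle control cultures reached saturation at 30 °C; 1 = growth at the plate median or of vehicle wells; lower values mean less growth of the strain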; details: S. cerevisiae deletion strains, growth OD, locus YDL005C, strain med2, active compounds read low
Among all 5,500 compounds or so, about 2,000 (36%) were called active. Not shown: some 18% with an inconclusive outcome. Some of the results follow.
RESULT_TYPE: normalized growth
Give bare numbers.

Recorded normalized growth, per entry:
COMPOUND: CCNc1nc(Cl)nc(NC(C)C)n1
normalized growth: 0.999
//
COMPOUND: CCCCCN=C(N)N/N=C\c1c[nH]c2ccc(OC)cc12
normalized growth: 1.01
//
COMPOUND: COc1cc(OC)c(C(C)=O)c(O)c1C
normalized growth: 0.978
//
COMPOUND: CNC(=O)CSP(=S)(OC)OC
normalized growth: 1.03
//
COMPOUND: CCOc1nc2cccc(C(=O)OC(C)OC(=O)OC3CCCCC3)c2n1Cc1ccc(-c2ccccc2-c2nn[nH]n2)cc1 (stereo unspecified)
normalized growth: 1.03

List the reported normalized growth of each compound below.
1. Cc1nccc2c1[nH]c1ccccc12
2. O=C(O)CCCN1C(=O)c2cccc3cccc(c23)C1=O
3. c1ccc2c(c1)[nH]c1cnccc12
4. COc1ccc2c(c1)[nH]c1c(C)nccc12
5. C[N+]1(C)C2CC[C@H]1CC(OC(=O)C(O)c1ccccc1)C2 (stereo partly specified)
6. CCCCC(=O)N(Cc1ccc(-c2ccccc2-c2nn[nH]n2)cc1)[C@H](C(=O)O)C(C)C

Response:
1. 0.965
2. 1
3. 0.989
4. 0.994
5. 0.991
6. 1

###

Please respond with reported normalized growth for every item in the list.
test: chemical genetic growth profiling, strain panel (AID 1159580);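 note: tested at 20 µM; growth read once vehicle control cultures reached saturation at 30 °C; 1 = growth at the plate median or of vehicle wells; lower values mean less growth of the strain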; conditions: S. cerevisiae deletion strains, growth OD, locus YGR229C, strain SMI1, active compounds read low
Screen size: about 5,500 compounds; about 2,000 (36%) were called active. Not shown: some 18% with an inconclusive outcome. This is one part of the list.
One number for each entry.

Recorded results for 3 compounds are shown here.
STRUCTURE_SMILES: N#Cc1ccc2c(c1)N(CCCN1CCC(O)CC1)c1ccccc1S2
normalized growth: 1
--
STRUCTURE_SMILES: CC1(C)C[C@@H]2C(=O)CC[C@H]3O[C@]3(C)CC[C@H]21
normalized growth: 1.01
--
STRUCTURE_SMILES: COc1ccc(-n2c(SCc3ccc(Br)cc3)nnc2-c2ccco2)cc1
normalized growth: 0.978

Go through the list and state normalized growth for each entry.
1. CCCN(CCC)[C@@H]1CCc2cccc(O)c2C1
2. O=c1ccc2ccc(O)c(O)c2o1
3. O=c1c(-c2ccc3c(c2)OCO3)coc2cc(O)ccc12

Response:
1: 1.07; 2: 1.03; 3: 1.03

Value sought for every listed compound: normalized growth.
1. CCOC(=N)c1ccc(F)c(Cl)c1
2. CCS(=O)(=O)CCn1c([N+](=O)[O-])cnc1C

Response:
1: 1.02; 2: 1.02

###

assay: chemical genetic growth profiling, strain panel (AID 1159580);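 note: tested at 20 µM; growth read once vehicle control cultures reached saturation at 30 °C; 1 = growth at the plate median or of vehicle wells; lower values mean less growth of the strain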; details: S. cerevisiae deletion strains, growth OD, locus YER015W, strain faa2, active compounds read low
Among all 5,500 compounds or so, about 2,000 (36%) were called active. Not shown: some 18% with an inconclusive outcome. Some of the results follow.
RESULT_TYPE: normalized growth
Answers are plain numbers.

MOLECULE: Cc1cccc(N(C)C(=S)Oc2ccc3ccccc3c2)c1
RESULT_TYPE: normalized growth
ENDPOINT_VALUE: 0.991

Each molecule below has a recorded value; state its normalized growth.
1. NCCS
2. CSCCC(NC=O)C(=O)NC(CC(C)C)C(=O)NC(Cc1ccccc1)C(=O)O (stereo not given)

Response:
0.995
1

Hi there! I need normalized growth for each item below, if you can.
1. COc1ccc2c(=O)c(-c3cc4c(cc3OC)OCO4)coc2c1
2. COc1cc(OC)c2c(c1Cl)OC1(C2=O)C(O)=CC(=O)CC1C (stereo not given)

Response:
1: 1.01; 2: 1.01
